target: human GLUT1 (Homo sapiens); construct: expressed in transfected cells; assay: [3H]-deoxy-D-glucose uptake assay, GLUT1; assay type: cell-based; details: [3H]-deoxy-D-glucose uptake in HEK293 cells stably expressing human GLUT1
Measurement Label: GLUT1 pIC50

CN(c1ccc2nc(-c3ccc(Cl)cc3)c(CN3CCOCC3)n2c1)S(C)(=O)=O :: +++ (pIC50 ≧ 6.00)
COc1cccc(-c2nc3ccc(-c4ccccc4)cn3c2CN2CCOCC2)c1 :: ++ (pIC50 5.00-5.99)
Fc1cccc(F)c1-c1cn2c(CN3CCOCC3)c(-c3ccc(Cl)cc3)nc2cn1 :: +++ (pIC50 ≧ 6.00)
Clc1ccc(-c2nc3ccc(Oc4ccccc4)cn3c2CN2CCOCC2)cc1 :: + (pIC50 4.00-4.99)
CN(CC(=O)N(C)C)Cc1c(-c2ccc(Cl)cc2)nc2ccc(-c3ccccc3)cn12 :: +− (pIC50 < 4.00)

q: Need GLUT1 pIC50 of COc1ccc2nc(-c3ccc(Cl)cc3)c(CN3CCOCC3)n2c1 , thanks.
a: + (pIC50 4.00-4.99)

q: Would you kindly repeat that for O=C(c1c(-c2ccc(Cl)cc2)nc2ccc(-c3ccccc3)cn12)N1CCOCC1 ?
a: +− (pIC50 < 4.00)

q: Would you kindly repeat that for CC(=O)N1CCN(Cc2c(-c3ccc(Cl)cc3)nc3cnc(-c4ccccc4C#N)cn23)CC1 ?
a: +++ (pIC50 ≧ 6.00)

q: Would you kindly repeat that for CC(=O)Nc1ccc2nc(-c3ccc(Cl)cc3)c(CN3CCOCC3)n2c1 ?
a: +− (pIC50 < 4.00)

q: Would you kindly repeat that for CS(=O)(=O)Nc1ccc2nc(-c3ccc(Cl)cc3)c(CN3CCN(C(=O)C4COC4)CC3)n2c1 ?
a: +++ (pIC50 ≧ 6.00)

====

target: human GLUT1 (Homo sapiens, UniProt P11166); construct: expressed in transfected cells; assay: [3H]-deoxy-D-glucose uptake assay, GLUT1; type: cell-based; settings: [3H]-deoxy-D-glucose uptake in HEK293 cells stably expressing human GLUT1
Sequence (P11166 whole entry): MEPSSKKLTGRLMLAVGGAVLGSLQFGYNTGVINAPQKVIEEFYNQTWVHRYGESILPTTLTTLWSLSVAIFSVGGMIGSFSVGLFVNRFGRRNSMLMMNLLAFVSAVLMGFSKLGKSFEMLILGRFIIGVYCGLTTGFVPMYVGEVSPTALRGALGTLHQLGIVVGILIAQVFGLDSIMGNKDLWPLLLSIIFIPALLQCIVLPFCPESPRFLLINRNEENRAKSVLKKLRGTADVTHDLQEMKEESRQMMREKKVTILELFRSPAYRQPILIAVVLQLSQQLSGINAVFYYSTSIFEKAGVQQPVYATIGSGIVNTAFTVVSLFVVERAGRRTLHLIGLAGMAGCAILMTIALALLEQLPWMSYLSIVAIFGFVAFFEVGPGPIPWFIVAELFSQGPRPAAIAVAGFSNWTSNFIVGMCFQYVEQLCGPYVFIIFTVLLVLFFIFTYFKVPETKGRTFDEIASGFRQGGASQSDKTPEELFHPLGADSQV
Measurement Label: GLUT1 pIC50

Solved cases (8 shown):
Clc1ccc(-c2nc3ccc(C4CCCC4)cn3c2CN2CCOCC2)cc1 [Compound 240] :: ++ (pIC50 5.00-5.99)
COCC(=O)N1CCN(Cc2c(-c3ccc(Cl)cc3Cl)nc3cnc(C4CC4)cn23)CC1 [Compound 311] :: +++ (pIC50 ≧ 6.00)
CCOC(=O)CN1CCN(Cc2c(-c3ccc(Cl)cc3)nc3ccc(-c4ccccc4)cn23)CC1 [Compound 211] :: +− (pIC50 < 4.00)
Clc1ccc(-c2nc3ccc(Cl)cn3c2CN2CCOCC2)cc1 [Compound 27] :: ++ (pIC50 5.00-5.99)
Cc1ccc(C(=O)N2CCN(Cc3c(-c4ccc(F)cc4)nc4ccc(-c5ccccc5)cn34)CC2)cc1 [Compound 40] :: ++ (pIC50 5.00-5.99)
O=C(c1cccc(F)c1)N1CCN(Cc2c(-c3ccc(Cl)cc3)nc3ccc(-c4ccccc4)cn23)CC1 [Compound 8] :: +++ (pIC50 ≧ 6.00)
O=C(c1cn[nH]c1)N1CCN(Cc2c(-c3ccc(Cl)cc3)nc3ccc(-c4ccccc4)cn23)CC1 [Compound 250] :: +++ (pIC50 ≧ 6.00)
O=C1CN(Cc2c(-c3ccc(Cl)cc3)nc3ccc(-c4ccccn4)cn23)CCN1 [Compound 294] :: +++ (pIC50 ≧ 6.00)

Now look at this one.
q: Need GLUT1 pIC50 of CC(C)(O)C(=O)N1CCN(Cc2c(-c3ccc(Cl)cc3Cl)nc3cnc(C4CC4)cn23)CC1 [Compound 322] , thanks.
a: +++ (pIC50 ≧ 6.00)

====

target: human GLUT1 (Homo sapiens, UniProt P11166); construct: expressed in transfected cells; experiment: [3H]-deoxy-D-glucose uptake assay, GLUT1; format: cell-based; details: [3H]-deoxy-D-glucose uptake in HEK293 cells stably expressing human GLUT1
Measurement Label: GLUT1 pIC50

O=C(c1ccncc1)N1CCN(Cc2c(-c3ccc(Cl)cc3)nc3ccc(C4CC4)cn23)CC1 :: +++ (pIC50 ≧ 6.00)
N#Cc1cccc(C(=O)N2CCN(Cc3c(-c4ccc(Cl)cc4)nc4ccc(-c5ccccc5)cn34)CC2)c1 :: +++ (pIC50 ≧ 6.00)
O=C(c1cccs1)N1CCN(Cc2c(-c3ccc([N+](=O)[O-])cc3)nc3ccc(-c4ccccc4)cn23)CC1 :: +++ (pIC50 ≧ 6.00)

====

target: human GLUT1 (Homo sapiens, UniProt P11166); construct: expressed in transfected cells; assay: [3H]-deoxy-D-glucose uptake assay, GLUT1; type: cell-based; conditions: [3H]-deoxy-D-glucose uptake in HEK293 cells stably expressing human GLUT1
Measurement Label: GLUT1 pIC50

CS(=O)(=O)Nc1ccc2nc(-c3ccc(Cl)cc3Cl)c(CN3CCN(C(=O)C4COC4)CC3)n2c1 [Compound 334] :: +++ (pIC50 ≧ 6.00)
N#Cc1ccccc1-c1ccc2nc(-c3ccc(Cl)cc3)c(CN3CCN(C(=O)C4CCC4)CC3)n2c1 [Compound 213] :: +++ (pIC50 ≧ 6.00)
COCC(=O)N1CCN(Cc2c(-c3cccc(OC)c3)nc3ccc(-c4ccccc4)cn23)CC1 [Compound 57] :: ++ (pIC50 5.00-5.99)
Clc1ccc(-c2nc3ccc(C4COC4)cn3c2CN2CCOCC2)cc1 [Compound 298] :: ++ (pIC50 5.00-5.99)
CN(C)Cc1c(-c2ccc(Cl)cc2)nc2ccc(-c3ccccc3)cn12 [Compound 97] :: + (pIC50 4.00-4.99)
CC(=O)N1CCN(Cc2c(-c3ccc(Cl)cc3Cl)nc3cnc(C4CC4)cn23)CC1 [Compound 271] :: +++ (pIC50 ≧ 6.00)

q: Need GLUT1 pIC50 of O=C(c1ccc(F)cc1)N1CCN(Cc2c(-c3ccc(Cl)cc3)nc3ccc(-c4ccccc4)cn23)CC1 [Compound 53] , thanks.
a: +++ (pIC50 ≧ 6.00)

q: Would you kindly repeat that for Cc1ccc2nc(-c3ccccc3)c(CN3CCNC(=O)C3)n2c1 [Compound 30] ?
a: +− (pIC50 < 4.00)

q: Would you kindly repeat that for FC(F)(F)Oc1ccccc1-c1ccc2nc(-c3ccc(Cl)cc3)c(CN3CCOCC3)n2c1 [Compound 153] ?
a: +− (pIC50 < 4.00)

q: Would you kindly repeat that for CC(C)(O)C(=O)N1CCN(Cc2c(-c3ccc(Cl)cc3)nc3ccc(-c4ccccc4)cn23)CC1 [Compound 308] ?
a: +++ (pIC50 ≧ 6.00)

q: Would you kindly repeat that for CC(=O)N1CCN(Cc2c(-c3ccc(Cl)cc3)nc3ccc(-c4ccccc4)cn23)CC1 [Compound 61] ?
a: +++ (pIC50 ≧ 6.00)

q: Would you kindly repeat that for CCNC(=O)c1cccc2nc(-c3ccc(Cl)cc3)c(CN3CCOCC3)n12 [Compound 121] ?
a: +− (pIC50 < 4.00)

q: Would you kindly repeat that for CS(=O)(=O)Nc1ccc2nc(-c3ccc(Cl)cc3Cl)c(CN3CCCOCC3)n2c1 [Compound 362] ?
a: +++ (pIC50 ≧ 6.00)

q: Would you kindly repeat that for O=C(c1ccccc1F)N1CCN(Cc2c(-c3ccc(Cl)cc3)nc3ccc(-c4ccccc4)cn23)CC1 [Compound 45] ?
a: +++ (pIC50 ≧ 6.00)

q: Would you kindly repeat that for CS(=O)(=O)Nc1ccc2nc(-c3ccc(Cl)cc3)c(CN3CCN(C(=O)c4cscn4)CC3)n2c1 [Compound 279] ?
a: +++ (pIC50 ≧ 6.00)

q: Would you kindly repeat that for Clc1ccc(-c2nc3ccc(-c4ccccc4)cn3c2CN2CCCCC2)cc1 [Compound 98] ?
a: + (pIC50 4.00-4.99)

q: Would you kindly repeat that for CC(=O)N1CCN(Cc2c(-c3ccc(Cl)cc3)nc3ccc(S(C)(=O)=O)cn23)CC1 [Compound 378] ?
a: +++ (pIC50 ≧ 6.00)

q: Would you kindly repeat that for CC(C)c1cn2c(CN3CCOCC3)c(-c3ccc(Cl)cc3)nc2cn1 [Compound 217] ?
a: +++ (pIC50 ≧ 6.00)

====

Target: human GLUT2 (Homo sapiens, UniProt P11168)
Construct: expressed in transfected cells
Sequence (P11168 1-524): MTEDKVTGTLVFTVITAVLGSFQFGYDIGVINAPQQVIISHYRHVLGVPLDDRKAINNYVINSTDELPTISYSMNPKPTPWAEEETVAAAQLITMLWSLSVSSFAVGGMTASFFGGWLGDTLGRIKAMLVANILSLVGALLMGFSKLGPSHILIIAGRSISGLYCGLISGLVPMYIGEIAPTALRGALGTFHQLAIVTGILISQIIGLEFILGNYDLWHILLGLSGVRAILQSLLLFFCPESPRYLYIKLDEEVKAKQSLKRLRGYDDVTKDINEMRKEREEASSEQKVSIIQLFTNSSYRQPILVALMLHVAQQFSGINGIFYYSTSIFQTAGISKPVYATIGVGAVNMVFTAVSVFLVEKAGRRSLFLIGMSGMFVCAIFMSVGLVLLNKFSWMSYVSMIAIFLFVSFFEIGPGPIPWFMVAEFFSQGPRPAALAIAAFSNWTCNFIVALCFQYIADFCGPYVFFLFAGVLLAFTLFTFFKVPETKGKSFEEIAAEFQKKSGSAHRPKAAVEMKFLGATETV
Assay: [3H]-deoxy-D-glucose uptake assay, GLUT2
Assay type: cell-based
Settings: [3H]-deoxy-D-glucose uptake in HEK293 cells stably expressing human GLUT2
Measurement Label: GLUT2 pIC50

CC(=O)N1CCN(Cc2c(-c3ccc(Cl)cc3)nc3cnc(NS(C)(=O)=O)cn23)CC1 :: +− (pIC50 < 4.00)
CC(C)c1cn2c(CN3CCOCC3)c(-c3ccc(Cl)cc3Cl)nc2cn1 :: +++ (pIC50 ≧ 6.00)
N#Cc1ccccc1-c1ccc2nc(-c3ccc(Cl)cc3)c(CN3CCOCC3)n2c1 :: +++ (pIC50 ≧ 6.00)
CCC(=O)N1CCN(Cc2c(-c3ccc(Cl)cc3)nc3cnc(C4CC4)cn23)CC1 :: +++ (pIC50 ≧ 6.00)
Clc1ccc(-c2nc3ccc(-c4ncon4)cn3c2CN2CCn3ncnc3C2)c(Cl)c1 :: +++ (pIC50 ≧ 6.00)
CC(=O)N1CCN(Cc2c(-c3ccc(Cl)cc3Cl)nc3ccc(NS(C)(=O)=O)cn23)CC1 :: ++ (pIC50 5.00-5.99)
CS(=O)(=O)Nc1ccc2nc(-c3ccc(Cl)cc3Cl)c(CN3CCN(C(=O)C4COC4)CC3)n2c1 :: ++ (pIC50 5.00-5.99)
Clc1ccc(-c2nc3ccc(-c4ccccc4)cn3c2CN2CCSCC2)cc1 :: +− (pIC50 < 4.00)

q: Need GLUT2 pIC50 of CN(c1ccc2nc(-c3ccc(Cl)cc3)c(CN3CCNCC3)n2c1)S(C)(=O)=O , thanks.
a: +− (pIC50 < 4.00)

q: Would you kindly repeat that for CN(c1ccc2nc(-c3ccc(Cl)cc3Cl)c(CN3CCN(C(=O)C4COC4)CC3)n2c1)S(C)(=O)=O ?
a: +++ (pIC50 ≧ 6.00)

q: Would you kindly repeat that for CC(=O)N1CCN(Cc2c(-c3ccc(Cl)cc3Cl)nc3ccc(-c4ncon4)cn23)CC1 ?
a: +++ (pIC50 ≧ 6.00)

q: Would you kindly repeat that for CC(=O)N1CCN(Cc2c(-c3ccc(Cl)cc3Cl)nc3ccc(N4CCCS4(=O)=O)cn23)CC1 ?
a: +++ (pIC50 ≧ 6.00)

q: Would you kindly repeat that for CS(=O)(=O)Nc1ccc2nc(-c3ccc(Cl)cc3Cl)c(CN3CCN4C(=O)CCC4C3)n2c1 (stereo not shown) ?
a: +++ (pIC50 ≧ 6.00)

q: Would you kindly repeat that for CN(c1ccc2nc(-c3ccc(Cl)cc3Cl)c(CN3CCn4ncnc4C3)n2c1)S(C)(=O)=O ?
a: ++ (pIC50 5.00-5.99)

q: Would you kindly repeat that for CC(=O)N1CCN(Cc2c(-c3ccc(Cl)cc3)nc3ccc(N(C(C)C)S(C)(=O)=O)cn23)CC1 ?
a: ++ (pIC50 5.00-5.99)

q: Would you kindly repeat that for CN(c1ccc2nc(-c3ccc(Cl)cc3Cl)c(CN3CCNC(=O)C3)n2c1)S(C)(=O)=O ?
a: +++ (pIC50 ≧ 6.00)
